B1: PhoQ; a variant is named by its letters at X, in order, P23837 (parent)
chain: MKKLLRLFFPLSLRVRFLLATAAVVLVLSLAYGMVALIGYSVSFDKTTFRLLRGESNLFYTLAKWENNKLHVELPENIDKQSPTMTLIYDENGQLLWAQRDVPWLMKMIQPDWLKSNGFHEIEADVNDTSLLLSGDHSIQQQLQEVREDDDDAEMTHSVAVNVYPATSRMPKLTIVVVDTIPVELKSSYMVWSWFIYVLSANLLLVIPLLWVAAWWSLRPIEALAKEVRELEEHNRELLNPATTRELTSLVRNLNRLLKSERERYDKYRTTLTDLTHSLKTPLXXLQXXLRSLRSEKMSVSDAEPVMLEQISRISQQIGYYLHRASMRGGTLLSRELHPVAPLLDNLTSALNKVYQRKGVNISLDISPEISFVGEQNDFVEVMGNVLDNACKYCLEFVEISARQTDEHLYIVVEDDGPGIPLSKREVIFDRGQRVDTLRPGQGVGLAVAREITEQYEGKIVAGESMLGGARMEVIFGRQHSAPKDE

Variants of: B1
Experiment: enrichment ratio after two sorts for PhoP signalling (ratio (wild type AVST 3.29)); higher = more functional
Conditions: with PhoP (E. coli)
Over roughly 140,000 sequences, “enrichment ratio after two sorts for PhoP signalling” has its median near 0; the highest 2% begin near 11. This excerpt belongs to a sample that is enriched for the highest values.
property_measured: enrichment ratio
Lab note: record the figure alone, no unit after it.

# input // lookup enrichment ratio for SICE
# output 1.33

# input So what does the record say about enrichment ratio for ASVH ?
# output 8.62

# input enrichment ratio lookup needed for TMGH , thanks.
# output 15.3

# input // query enrichment ratio value for entry SSWM
# output 6.76

# input What value of enrichment ratio has been reported for the following variant? SILH
# output 3.1

# input // returns reported enrichment ratio for input SQTM
# output 6.18

# input Suppose we examine the variant TMTH ; what enrichment ratio value has been reported?
# output 9.92

# input Name the recorded enrichment ratio for ASTH .
# output 6.74

# input So what does the record say about enrichment ratio for SICI ?
# output 21

# input Please look up its enrichment ratio: ASCH
# output 13.6
